Give measured activity change, negative = growth inhibition for each item. Keep answers brief.
# test_name: efflux-deficient P. aeruginosa PAK growth delay, dose response, whole organism, PAK mexAB-OprM mutant, OD600, EDDHA, dry powder, set 4 (AID 624074)
# condition_set: P. aeruginosa PAK ΔmexAB-oprM growth with EDDHA, OD600, 28 h; at 100 µM (top of the series)
Kindly answer with a numeric value in %, unit omitted.

Entry CCCCC(C#N)c1ccc(F)cn1 (centres undefined) has what activity change, negative = growth inhibition?
-15.7

Note, next up: COCCC(C#N)c1ccc(F)cc1 (centres undefined)
-11.9

Note, next up: CCCCC(c1ccc(Cl)cc1)c1nn[nH]n1 (centres undefined)
-10.1

Note, next up: COCCNC(C#N)c1ccc(Cl)cc1 (centres undefined)
-1.19
